Data provenance: patent US9321756B2

assaySystem: full length recombinant Pim-1 (Homo sapiens (Human), UniProt P11309)
Sequence (P11309 whole entry): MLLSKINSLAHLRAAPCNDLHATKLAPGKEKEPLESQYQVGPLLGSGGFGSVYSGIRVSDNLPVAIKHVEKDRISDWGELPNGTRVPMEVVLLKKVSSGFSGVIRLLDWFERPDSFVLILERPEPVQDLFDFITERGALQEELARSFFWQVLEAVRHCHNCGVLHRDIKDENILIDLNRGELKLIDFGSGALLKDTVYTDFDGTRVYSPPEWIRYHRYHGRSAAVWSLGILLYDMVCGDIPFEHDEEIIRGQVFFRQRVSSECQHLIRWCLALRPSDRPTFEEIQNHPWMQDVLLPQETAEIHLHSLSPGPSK
protocolText: Pim enzyme assay (HTRF, phosphorylation of biotinylated-BAD (S112) peptide), Pim-1
Format: biochemical
testContext: read-out: Pim_1_IC50
reportedEndpoint: log10(IC50) (log10 of the value in nM)
Units before log transform: nM; reported quantity: IC50; transform: log10.

Sample answers from the record:
| molecule | assaySystem | log10(IC50) |
| --- | --- | --- |
| CC(C)Oc1cncc(-c2c[nH]c3ccc(-c4nnc(N)s4)cc23)n1 [Example 159] | full length recombinant Pim-1 (Homo sapiens (Human), UniProt P11309) | 0.91 |
| CN1CCN(c2cccc(-c3c[nH]c4ccc(-c5nnc(N)s5)cc34)n2)CC1=O [Example 30] | full length recombinant Pim-1 (Homo sapiens (Human), UniProt P11309) | 1.12 |
| Nc1nnc(-c2ccc3[nH]cc(-c4cccc(N5CCCC5)n4)c3c2)s1 [Example 14] | full length recombinant Pim-1 (Homo sapiens (Human), UniProt P11309) | 1.05 |
| Nc1nnc(-c2ccc3[nH]cc(-c4cccc(-c5ccc(Cl)cc5)n4)c3c2)s1 [Example 31] | full length recombinant Pim-1 (Homo sapiens (Human), UniProt P11309) | 1.57 |
| CN1CCN(c2cccc(-c3c[nH]c4ccc(-c5nnc(N)s5)cc34)n2)CC1 [Example 13] | full length recombinant Pim-1 (Homo sapiens (Human), UniProt P11309) | 0.31 |
| Nc1nnc(-c2ccc3[nH]cc(-c4cccc(N5CCCC5)n4)c3c2)s1 [Example 176] | full length recombinant Pim-1 (Homo sapiens (Human), UniProt P11309) | 1.64 |

# map each molecule to its log10(IC50)
1. Nc1nnc(-c2ccc3[nH]cc(-c4cncc(NC5CCCC5)n4)c3c2)s1 [Example 17, 2,2,2-trifluoroacetate]
2. Nc1nnc(-c2ccc3[nH]cc(-c4cncc(NC5CC5)n4)c3c2)s1 [Example 15]

1. 0.18
2. 0.66

###

assaySystem: full length recombinant Pim-1 (Homo sapiens (Human))
protocolText: Pim enzyme assay (HTRF, phosphorylation of biotinylated-BAD (S112) peptide), Pim-1
Assay type: biochemical
testContext: Pim-1 enzyme assay; read-out: Pim_1_IC50
pIC50: −log10 of the molar value.
Binary classification by pIC50, with 8 as an inclusive lower bound for t; all other cases are f.

| compound | answerLabel |
| --- | --- |
| c1cc2[nH]cc(-c3cncc(C4CC4)n3)c2cc1-c1nnc(NC2CC2)o1 [Example 49] | t |
| Nc1nnc(-c2ccc3[nH]cc(-c4cccc(F)n4)c3c2)s1 [Example 209] | f |
| Nc1nnc(-c2ccc3[nH]cc(-c4cccc(C(F)(F)F)n4)c3c2)s1 [Example 182] | f |
| CNc1nnc(-c2ccc3[nH]cc(-c4c(F)cccc4F)c3c2)s1 [Example 237] | f |
| CNc1nnc(-c2ccc3[nH]cc(-c4cncc(N5CCCCC5)n4)c3c2)s1 [Example 227] | t |

# input for lookup
Is pIC50 for CNc1nnc(-c2ccc3[nH]cc(-c4cccc(N)c4)c3c2)s1 [Example 221] at or above 8?
f

###

assaySystem: full length recombinant Pim-1 (Homo sapiens (Human), UniProt P11309)
protocolText: Pim enzyme assay (HTRF, phosphorylation of biotinylated-BAD (S112) peptide), Pim-1
Assay type: biochemical
testContext: Pim-1 enzyme assay; read-out: Pim_1_IC50
reportedEndpoint: log10 of IC50 (log10 of the value in µM)
Friendly reminder: values = log10 of IC50, unit µM.

Hi, could you look up log10 of IC50 for each item in my list?
1. CC(C)Oc1cccc(-c2c[nH]c3ccc(-c4nc(N)no4)cc23)n1
2. CC(C)Cn1cc(-c2c[nH]c3ccc(-c4nnc(N)o4)cc23)cn1
3. CNc1nnc(-c2ccc3[nH]cc(-c4cccc(N5CCCCC5=O)n4)c3c2)s1
4. CNc1nnc(-c2ccc3[nH]cc(-c4ccc(-c5cccs5)s4)c3c2)s1

1: -1.37; 2: -1.33; 3: -0.49; 4: 0.34
